# reported IC50; entries follow
# Tested on: L. donovani promastigotes (AG83 strain)
# ASSAY NOTES: LDH cytotoxicity assay on promastigotes, AG83 strain
# Format: cell-based, Leishmania donovani
# EXPERIMENTAL CONDITIONS: Table 1; activity against promastigotes
# output: bare number, implied unit µM

Short answer for CCCCOC1O[C@H](COC(C)=O)[C@@H](OC(C)=O)[C@H](OC(C)=O)[C@H]1OC(C)=O (stereo partly drawn) : IC50 was 4.6

Short answer for CCOC1O[C@H](COC(C)=O)[C@@H](OC(C)=O)[C@H](OC(C)=O)[C@H]1OC(C)=O (stereo partly drawn) : IC50 was 77

Short answer for CCCCCCOC1O[C@H](CO)[C@@H](O)[C@H](O)[C@H]1O (stereo partly drawn) : IC50 was 12.7

Short answer for CCOC1O[C@H](CO)[C@@H](O)[C@H](O)[C@H]1NC(C)=O (stereo partly drawn) [Gly1, ethyl glycoside N-Acetyl-D-glucosamine] : IC50 was 65

Short answer for `CCCCO[C@H]1O[C@H](COC(C)=O)[C@@H](OC(C)=O)[C@H](OC(C)=O)[C@H]1NC(C)=O` : IC50 was 95

Short answer for CCCCCCOC1O[C@H](COC(C)=O)[C@@H](OC(C)=O)[C@H](OC(C)=O)[C@H]1OC(C)=O (stereo partly drawn) : IC50 was 5.97

###

# Tested on: promastigotes of clinical isolate of PKDL strain, BS12 of L. donovani
# ASSAY NOTES: LDH cytotoxicity assay on promastigotes of clinical PKDL isolate BS12
# Type: cell-based
# EXPERIMENTAL CONDITIONS: Leishmania donovani, LDH assay 72 h
MEASUREMENT LABEL: pIC50
Answer as the number alone; pIC50 is minus log10 of concentration in mol/L.

Short answer for CC(C)CCOC1O[C@H](CO)[C@@H](O)[C@H](O)[C@H]1O (stereo partly shown) : pIC50 was 5.71

###

# reported CC50; entries follow
# ASSAY NOTES: MTT cell viability assay on macrophages
# Type: cell-based, murine
# EXPERIMENTAL CONDITIONS: mouse, J774.A1 macrophage cells; Table 1; macrophages
# output: bare number, implied unit µM

Example molecules with recorded CC50:
molecule="CCCOC1O[C@H](COC(C)=O)[C@@H](OC(C)=O)[C@H](OC(C)=O)[C@H]1OC(C)=O (stereo partly drawn)" meas_value=959
molecule="CC(=O)OC[C@H]1OC(OCCC(C)C)[C@H](OC(C)=O)[C@@H](OC(C)=O)[C@@H]1OC(C)=O (stereo partly drawn)" meas_value=1030

# ---- query molecule ----
Short answer for CC(C)CCOC1O[C@H](CO)[C@@H](O)[C@H](O)[C@H]1O (stereo partly drawn) : CC50 was 2900

###

# reported pIC50; entries follow
# Tested on: L. donovani promastigotes (AG83 strain)
# ASSAY NOTES: LDH cytotoxicity assay on promastigotes, AG83 strain
# Assay type: cell-based, Leishmania donovani
# EXPERIMENTAL CONDITIONS: Table 1; activity against promastigotes
Answer as the number alone; pIC50 is minus log10 of concentration in mol/L.

Short answer for CCCOC1O[C@H](COC(C)=O)[C@@H](OC(C)=O)[C@H](OC(C)=O)[C@H]1NC(C)=O (stereo partly drawn) [Gly10] : pIC50 was 4.60

Short answer for CC(=O)N[C@H]1[C@@H](OCCC(C)C)O[C@H](COC(C)=O)[C@@H](OC(C)=O)[C@@H]1OC(C)=O [Gly11] : pIC50 was 4.37

Short answer for CC(=O)OC[C@H]1OC(OC(C)C)[C@H](OC(C)=O)[C@@H](OC(C)=O)[C@@H]1OC(C)=O (stereo partly drawn) [Gly9] : pIC50 was 4.44

Reference source for all entries: paper PMC9115111
